Measured abundance fitness, listed per entry.
B1: Formin-binding protein 4, residues 200 to 261; numbered along this chain, Q8N3X1 (parent)
chain: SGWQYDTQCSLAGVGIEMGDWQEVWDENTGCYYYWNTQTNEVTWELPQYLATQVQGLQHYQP

# Variants of: B1
# Experimental Details: abundance fitness (aPCA) (normalised: wild type 0, dead -1); higher = more abundant; growth selection in yeast, the domain comes from the species named
# Stated Conditions: Homo sapiens

Mutation Label: Y32F
abundance fitness: -0.009
--
Mutation Label: N40I
abundance fitness: -0.607
--
Mutation Label: N40V
abundance fitness: -0.556
--
Mutation Label: E23F
abundance fitness: -0.511
--
Mutation Label: N40W
abundance fitness: -0.34
--
Mutation Label: V14H
abundance fitness: -0.09
--
Mutation Label: L50R
abundance fitness: -0.82
--
Mutation Label: Y34M
abundance fitness: -0.962
--
Mutation Label: Y34S
abundance fitness: -0.862
--
Mutation Label: V42Q
abundance fitness: 0.308
--
Mutation Label: T29P
abundance fitness: -0.172
--
Mutation Label: T7S
abundance fitness: 0.002
--
Mutation Label: P47T
abundance fitness: -1.01
--
Mutation Label: Q55Y
abundance fitness: -0.389
--
Mutation Label: W25L
abundance fitness: -0.119
--
Mutation Label: Q48I
abundance fitness: -0.262
--
Mutation Label: W35V
abundance fitness: -0.104
--
Mutation Label: V24I
abundance fitness: -0.399
--
Mutation Label: Q55P
abundance fitness: -0.647
--
Mutation Label: Q8Y
abundance fitness: -0.267
--
Mutation Label: V24G
abundance fitness: -0.269
--
Mutation Label: L57Y
abundance fitness: -0.315
--
Mutation Label: L57S
abundance fitness: -0.084
--
Mutation Label: Q38E
abundance fitness: -0.081
--
Mutation Label: S10M
abundance fitness: -0.521
--
Mutation Label: Y5L
abundance fitness: -0.425
--
Mutation Label: S10F
abundance fitness: -0.776
--
Mutation Label: Y49R
abundance fitness: -0.527
--
Mutation Label: W21C
abundance fitness: -0.804
--
Mutation Label: W35G
abundance fitness: -0.297
--
Mutation Label: S1Y
abundance fitness: -0.631
--
Mutation Label: G13E
abundance fitness: -0.161
--
Mutation Label: Q58W
abundance fitness: -0.421
--
Mutation Label: Y33C
abundance fitness: -0.213
--
Mutation Label: G13I
abundance fitness: -0.471
--
Mutation Label: Y32T
abundance fitness: -0.773
--
Mutation Label: S10I
abundance fitness: -0.476
--
Mutation Label: N28C
abundance fitness: -0.022
--
Mutation Label: G30K
abundance fitness: 0.129
--
Mutation Label: C31L
abundance fitness: -0.183
--
Mutation Label: Y32W
abundance fitness: -0.543
--
Mutation Label: Q22Y
abundance fitness: -0.586
